Origin of the recorded values: ChEMBL document CHEMBL1157539

Task for the reader: assign each of the following compounds its reported Inhibition.
# Test system: Plasmodium falciparum
# Assay summary: GSK_TCMDC: Inhibition of Plasmodium falciparum Dd2 in whole red blood cells, using parasite LDH activity as an index of growth. Test compounds present at 2uM
# Format: functional
Give bare numbers, in %.

N=C(N)Nc1nc(-c2cccc(NC(=O)Cc3ccccc3)c2)cs1 ... 9

Required: Inhibition, one value per compound below.
1. CCNc1cc(C(=O)N[C@@H](Cc2ccc(F)c(F)c2)[C@H](O)CNCc2cccc(OC)c2)cc(N2CCCCS2(=O)=O)c1.Cl
2. CCN(CC)C(=S)N/N=C1/C(=O)Nc2c(C)cccc21
3. Cc1cccc(CN2CCC(C(=O)Nc3ccc(-c4nc5ccccc5[nH]4)cc3)CC2)n1
4. O=C(Nc1cc(Cl)ccc1Cl)N[C@H]1CCN(CCCCCNC(=O)C2CC2c2ccc(Cl)c(Cl)c2)C1 (stereo partly specified)
5. Cc1cc(N(C)C)nc(Nc2ccc(NS(=O)(=O)c3ccccc3)cc2)n1

**A:**
1. 85
2. 69
3. 3
4. 1
5. 11
